measured.on: Human immunodeficiency virus type 1 protease (Human immunodeficiency virus 1)
observation.type: pKi
Lab note — pKi values are minus log10 of concentrations in M.

If you can, please state the reported pKi value of O=C(N[C@H]1c2ccccc2C[C@H]1O)[C@H](Cc1ccccc1)C[C@H](O)CN1[C@@H](Cc2ccccc2)CN(Cc2ccccc2)S1(=O)=O .
9.10

Tell me the measured pKi of O=C(N[C@H]1c2ccccc2C[C@H]1O)[C@H](Cc1ccccc1)C[C@H](O)CN1[C@@H](Cc2ccccc2)C[C@H](Cc2ccccc2)S1(=O)=O , please.
7.80

Report pKi for O=C1N[C@H](Cc2ccccc2)C(=O)[C@H]1Cc1ccccc1 please.
10.30

What value of pKi has been reported for the following molecule? O=C(N[C@H]1c2ccccc2C[C@H]1O)[C@H](Cc1ccccc1)C[C@H](O)CN1C(=O)N(Cc2ccccc2)C[C@@H]1Cc1ccccc1
8.92

// pKi lookup, key: O=C(N[C@H]1c2ccccc2C[C@H]1O)[C@H](Cc1ccccc1)C[C@H](O)CN1C(=O)CC[C@@H]1Cc1ccccc1
6.48

Any idea what its pKi is? The molecule is O=C(N[C@H]1c2ccccc2C[C@H]1O)[C@H](Cc1ccccc1)C[C@H](O)CN1C(=O)[C@@H](Cc2ccccc2)C[C@@H]1Cc1ccccc1
10.30
